Organism: Rattus norvegicus
assay.method.text: Open TG-GATES - Regimen: Single
Assay type: toxicity, organism-based, Sprague-Dawley
Set-up: regimen Single, gender Male, age 6 weeks
condition: in vivo, po, 0 mg/kg, 6 h, tissue Plasma, route gavage, dose level Control
endpoint: AST (IU/L)
Form entry: value (IU/L) — number only.

Query block: Tell us which AST value is on record for C[C@](N)(Cc1ccc(O)c(O)c1)C(=O)O
Result block: 74

Query block: Tell us which AST value is on record for CCN1CCCC1CNC(=O)c1cc(S(N)(=O)=O)ccc1OC (stereo unspecified) [SULPIRIDE]
Result block: 78

Query block: Tell us which AST value is on record for CCC(C)(C)C(=O)O[C@H]1C[C@@H](C)C=C2C=C[C@H](C)[C@H](CC[C@@H]3C[C@@H](O)CC(=O)O3)[C@H]21
Result block: 60.4

Query block: Tell us which AST value is on record for O=C(N[C@H](CO)[C@H](O)c1ccc([N+](=O)[O-])cc1)C(Cl)Cl
Result block: 71.2

Query block: Tell us which AST value is on record for C#C[C@]1(O)CC[C@H]2[C@@H]3CCc4cc(O)ccc4[C@H]3CC[C@@]21C
Result block: 79.2

Query block: Tell us which AST value is on record for CC(=N)S [THIOACETAMIDE]
Result block: 65.2

Query block: Tell us which AST value is on record for O=C(O)c1cccnc1
Result block: 72.2

Query block: Tell us which AST value is on record for CCc1oc2ccccc2c1C(=O)c1cc(I)c(O)c(I)c1
Result block: 62

Query block: Tell us which AST value is on record for CC(C)C(=O)Nc1ccc([N+](=O)[O-])c(C(F)(F)F)c1 [FLUTAMIDE]
Result block: 65.8

Query block: Tell us which AST value is on record for CN1C(=O)OC(C)(C)C1=O
Result block: 72.2

Query block: Tell us which AST value is on record for Nc1nc(N)c2nc(-c3ccccc3)c(N)nc2n1
Result block: 69.2

Query block: Tell us which AST value is on record for C[C@]12CCC(=O)C=C1CC[C@@H]1[C@@H]2CC[C@@]2(C)[C@H]1CC[C@]2(C)O
Result block: 72.4

Query block: Tell us which AST value is on record for CCSCC[C@H](N)C(=O)O
Result block: 70.6

Query block: Tell us which AST value is on record for Oc1ncnc2[nH]ncc12
Result block: 62.2

Query block: Tell us which AST value is on record for CC(=O)Oc1cc(C(C)C)c(OCCN(C)C)cc1C
Result block: 76.4

Query block: Tell us which AST value is on record for CC(C)(S)[C@@H](N)C(=O)O
Result block: 70.6
